# experimentalTarget: T1, CD83-His (ectodomain of human CD83 with 6x Histidine tag) (human, UniProt Q01151 20-144)
# T1 construct: extracellular domain; Expressed in mammalian cells; also called hCD83-His; recombinant CD83-His; not shown: 6x Histidine tag
# T1 sequence (looked up): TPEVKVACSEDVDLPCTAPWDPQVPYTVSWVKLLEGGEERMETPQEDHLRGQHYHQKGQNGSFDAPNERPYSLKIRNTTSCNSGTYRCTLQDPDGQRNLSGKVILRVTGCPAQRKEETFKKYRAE
# procedureSummary: relative binding of light chain shuffled clones against 1F7; CD83 construct not given
readoutName: binding result

INSERT INTO assay_data (binder, readoutname, result) VALUES
  ('hFab4.10 (Fab, V domains shown, Light chain shuffled variant of 1F7) VH: EVQLVQSGGAVVQPGRSLRLSCAASGFTFSTYGMHWVRQAPGKGLEWVAAVSYDGSNKYYADFVKGRFTISRDNPKNTLYLQMNSLRADDTAVYYCARRGGLDIWGQGTTVTVSS VL: LTQPPSASGTPGQGVTISCRGSTSNIGNNVVNWYQHVPGSAPKLLIWSNIQRPSGIPDRFSGSKSGTSASLAISGLQSEDEAVYYCAVWDDGLAGWVFGGGTTVTVLS', 'binding result', 'binds'),
  ('hFab4.12 (Fab, V domains shown, Light chain shuffled variant of 1F7) VH: EVQLVQSGGAVVQPGRSLRLSCAASGFTFSTYGMHWVRQAPGKGLEWVAAVSYDGSNKYYADFVKGRFTISRDNPKNTLYLQMNSLRADDTAVYYCARRGGLDIWGQGTTVTVSS VL: MTQAPVVSVALEQTVRITCQGDSLAIYYDFWYQHKPGQAPVLVIYGKNNRPSGIPHRFSGSSSNTDSLTITGAQAEDEADYYCNSRDSSGNHWVFGGGTNLTVLG', 'binding result', 'binds'),
  ('hFab4.2 (Fab, V domains shown, Light chain shuffled variant of 1F7) VH: EVQLVQSGGAVVQPGRSLRLSCAASGFTFSTYGMHWVRQAPGKGLEWVAAVSYDGSNKYYADFVKGRFTISRDNPKNTLYLQMNSLRADDTAVYYCARRGGLDIWGQGTTVTVSS VL: MTHTPLSLSVTPGQPASISCKSSQSLLHSDGKTYLYWYLQRPGQSPQPLIYEVSNRFSGVPDRFSGSGSGTDFTLKISRVEAEDVGVYYCMQSLQLWTFGQGTKVEIKR', 'binding result', 'binds');
